Data origin: ChEMBL document CHEMBL1135550

Parameter: ED50. Scope: all listed entries.
Test system: Rattus norvegicus
measurementDescription: Effective dose after subcutaneous administration to TPTX rats for 50% reduction of hypercalcemia
Type: functional
measurementSetup: sc
readoutKind: ED50 (µg/kg)

testsmiles=CN(CCCCc1ccccc1)CCC(O)(P(=O)(O)O)P(=O)(O)O assayedtarget="Rattus norvegicus" operator== reported=0.4
testsmiles=Cn1ccnc1NC(P(=O)(O)O)P(=O)(O)O assayedtarget="Rattus norvegicus" operator== reported=5
testsmiles=O=P(O)(O)C(O)(CCN1CCC(c2cccc(F)c2)CC1)P(=O)(O)O assayedtarget="Rattus norvegicus" operator== reported=30
testsmiles=O=P(O)(O)C(O)(Cn1cccn1)P(=O)(O)O assayedtarget="Rattus norvegicus" operator=> reported=300
testsmiles=CN(CCCOc1ccccc1)CCCC(O)(P(=O)(O)O)P(=O)(O)O assayedtarget="Rattus norvegicus" operator== reported=100
testsmiles=CN(CCc1ccccc1)CCC(O)(P(=O)(O)O)P(=O)(O)O assayedtarget="Rattus norvegicus" operator== reported=1.4
